# target-desc: COX-2 (Canis lupus familiaris, UniProt Q8SPQ9)
# Construct: in vitro activity study using beagle dog whole blood was conducted; from tissue; host or cells: beagle dog whole blood, stimulated with LPS (by the same method as for human blood)
# Sequence (Q8SPQ9 18-604): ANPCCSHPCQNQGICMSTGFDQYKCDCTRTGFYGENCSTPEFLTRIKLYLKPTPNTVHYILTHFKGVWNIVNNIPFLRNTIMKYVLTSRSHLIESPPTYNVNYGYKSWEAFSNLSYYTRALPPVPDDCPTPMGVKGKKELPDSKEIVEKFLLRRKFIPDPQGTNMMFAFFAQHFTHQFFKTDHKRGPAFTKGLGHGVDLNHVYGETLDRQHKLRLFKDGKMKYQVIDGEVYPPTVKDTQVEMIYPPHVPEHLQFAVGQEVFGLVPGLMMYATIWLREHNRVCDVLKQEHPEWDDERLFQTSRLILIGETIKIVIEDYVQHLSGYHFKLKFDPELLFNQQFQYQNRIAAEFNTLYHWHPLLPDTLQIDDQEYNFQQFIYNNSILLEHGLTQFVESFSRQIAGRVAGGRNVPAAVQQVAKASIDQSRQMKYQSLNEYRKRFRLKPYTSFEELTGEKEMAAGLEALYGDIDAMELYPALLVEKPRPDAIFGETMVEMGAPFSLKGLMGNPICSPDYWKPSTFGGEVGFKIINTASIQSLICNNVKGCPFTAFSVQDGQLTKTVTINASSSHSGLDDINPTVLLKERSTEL
# test-details: Dog whole blood in vitro activity assay, COX-2
# Format: cell-based, beagle dog
# applied-conditions: read-out: IC50 (μg/mL) COX-2 (converted)
Give IC50 for every item shown.
Just the number please, in nM, no unit attached.

Param readout= IC50; system= COX-2 (Canis lupus familiaris, UniProt Q8SPQ9); entry= `CS(=O)(=O)c1ccc(-n2cnc(Cl)c2-c2ccc(F)cc2)nc1` ; returns value.
2620

Recall the recorded IC50 for `CS(=O)(=O)c1ccc(-n2cnc(Cl)c2-c2ccccc2)nc1` with COX-2 (Canis lupus familiaris, UniProt Q8SPQ9) and state it.
2640

API: value(readout=IC50, system=COX-2 (Canis lupus familiaris, UniProt Q8SPQ9)) for record `COc1ccc(-c2c(Cl)ncn2-c2ccc(S(C)(=O)=O)nc2)cc1`
2310

Which measured IC50 belongs to `Cc1ccc(-c2c(Cl)ncn2-c2ccc(S(C)(=O)=O)cn2)cc1` , tested on COX-2 (Canis lupus familiaris, UniProt Q8SPQ9)?
1610

Which IC50 is reported with COX-2 (Canis lupus familiaris, UniProt Q8SPQ9) for this entry: COc1ccc(-c2c(Cl)ncn2-c2ccc(S(N)(=O)=O)cc2)cc1F [Cimicoxib, reference compound] ?
1650
